# assayed system: recombinant human 11β-HSD1 (Homo sapiens, UniProt P28845)
# Sequence (P28845 whole entry): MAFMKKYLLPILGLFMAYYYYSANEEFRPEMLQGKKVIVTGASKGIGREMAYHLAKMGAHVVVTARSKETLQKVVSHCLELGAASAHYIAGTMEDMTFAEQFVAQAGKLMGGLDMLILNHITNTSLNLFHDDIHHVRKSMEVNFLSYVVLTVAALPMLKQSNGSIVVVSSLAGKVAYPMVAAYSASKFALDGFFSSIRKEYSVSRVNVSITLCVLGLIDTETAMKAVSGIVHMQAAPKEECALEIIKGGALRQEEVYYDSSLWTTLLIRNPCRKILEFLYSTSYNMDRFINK
# method description: Enzyme activity assay on human 11β-HSD1 (HTRF, cortisol production)
# test settings: recombinant human 11β-HSD1, 5 μM cortisone as substrate, 2 hours at 37° C., read-out: humanIC50
pIC50: −log10 of the molar value.
Catalogue of compounds with associated pIC50

{"columns": ["compound", "pIC50"],
 "data": [
  ["CC(C)Sc1c(OCC(C)(C)C#N)noc1C(=O)N[C@H]1C2CC3CC1C[C@](O)(C3)C2", 7.07],
  ["CC(C)Sc1c(OCC(C)(C)NC(=O)C2(N)CC2)noc1C(=O)NC1C2CC3CC(C2)CC1C3 (stereo not shown)", 7.15],
  ["CC(C)Sc1c(OCC(C)(C)C(=O)N2CCNCC2)noc1C(=O)NC1C2CC3CC(C2)CC1C3 (stereo not shown)", 7.46],
  ["CC(C)CSc1c(OCC(C)(C)CCCN)noc1C(=O)NC1C2CC3CC(C2)CC1C3 (stereo not shown)", 7.11]
]}
